Entry source: PubChem BioAssay (NCI)

Tested on: OVCAR-5 ovarian
Test: NCI tumour cell line growth inhibition, 48 h
endpoint: TGI

Recorded TGI, per entry:
{"columns": ["compound", "system-name", "TGI"],
 "data": [
  ["COc1ccc([C@]23CCC4(OCC(C)(C)CO4)[C@H]4CON(O[C@H](O[C@@H]5CCCCC5C(C)(C)c5ccccc5)C2)[C@@H]43)cc1OC (stereo partly drawn)", "OVCAR-5 ovarian", "> 100 µM"],
  ["COC(=O)C1CCc2nnc(-c3ccccc3)n21 (stereo not drawn)", "OVCAR-5 ovarian", "> 100 µM"],
  ["CCOC(=O)[C@@H](Cc1ccc(CCl)cc1)NC(C)=O", "OVCAR-5 ovarian", "44.2 µM"],
  ["COc1cc2cnc3c4cc(OCc5ccccc5)ccc4ccc3c2cc1OC", "OVCAR-5 ovarian", "> 100 µM"],
  ["CC(C)(C)c1ccnc(N=C2N=C(Nc3cc(C(C)(C)C)ccn3)c3ccccc32)c1", "OVCAR-5 ovarian", "> 100 µM"]
]}

[Q] Let me know recorded TGI for O=C([O-])CC(=O)[O-].[NH-][C@@H]1CCCC[C@H]1[NH-].[Pt+4] , thanks.
[A] > 100 µM

[Q] Let me know recorded TGI for C[C@]12C[C@H](O)[C@H]3[C@@H](CCC4=CC(=O)CC[C@@]43C)[C@@H]1CC[C@@H]2c1csc(-c2ccccc2)n1 , thanks.
[A] > 100 µM

[Q] Let me know recorded TGI for Cc1cn(S(=O)(=O)c2ccccc2)c2c(OCc3ccccc3)cc(NC(=O)c3cc4cc([N+](=O)[O-])ccc4s3)cc12 , thanks.
[A] > 100 µM

[Q] Let me know recorded TGI for COc1ccc(-c2cc3cc(Cl)cc(Cl)c3oc2=O)cc1OC , thanks.
[A] > 100 µM

[Q] Let me know recorded TGI for CCn1c(-c2nonc2N)nc2c(N3CCCC3)nccc21 , thanks.
[A] > 25 µM
